Experiment: Pharmacokinetic parameter clearance in dog was reported in Discrete dosage
Assay type: ADME, organism-based, Canis lupus familiaris
Conditions: plasma, read-out: Clp
// boundary case: clearance equal to 200 mL/min/kg maps to not satisfied; strictly smaller maps to satisfied

molecule	category.label
CC(C)C1C(=O)N(S(C)(=O)=O)C2CCN(C(=O)c3ccc(CNC4CC4)cc3)C12 (stereo not given)	satisfied
CC(C)[C@@H]1C(=O)N(S(C)(=O)=O)[C@@H]2CCN(C(=O)c3ccc(CCN4CCCCC4)cc3)[C@H]21	not satisfied
CC(C)C1C(=O)N(S(C)(=O)=O)C2CCN(C(=O)/C=C/CN3CCCCC3)C12 (stereo not given)	satisfied
CC(C)[C@@H]1C(=O)N(S(C)(=O)=O)[C@@H]2CCN(C(=O)/C=C/CNC3CC3)[C@H]21	satisfied

====

Biological target: Neutrophil elastase (Homo sapiens) (UniProt P08246); also: time not given here
Sequence (P08246 whole entry): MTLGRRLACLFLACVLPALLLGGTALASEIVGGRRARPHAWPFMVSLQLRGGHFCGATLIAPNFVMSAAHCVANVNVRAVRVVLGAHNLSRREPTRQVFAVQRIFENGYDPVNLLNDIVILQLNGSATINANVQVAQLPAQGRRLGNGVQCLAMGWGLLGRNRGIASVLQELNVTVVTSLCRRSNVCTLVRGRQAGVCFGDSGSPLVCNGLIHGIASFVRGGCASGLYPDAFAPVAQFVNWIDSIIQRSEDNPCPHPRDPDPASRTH
Conditions: Canis lupus familiaris; 2 mg/kg
measurement.kind: inhibition (%)

smiles.data	assay.system	measurement.kind	measurement
CC(C)[C@@H]1C(=O)N(S(C)(=O)=O)[C@@H]2CCN(C(=O)c3cnc(CNC4CC4)cn3)[C@H]21.Cl	Neutrophil elastase (Homo sapiens) (UniProt P08246)	inhibition	92
CC(C)[C@@H]1C(=O)N(S(C)(=O)=O)[C@@H]2CCN(C(=O)c3coc(CN4CCCC4)n3)[C@H]21.Cl	Neutrophil elastase (Homo sapiens) (UniProt P08246)	inhibition	100
CC(C)[C@@H]1C(=O)N(S(C)(=O)=O)[C@@H]2CCN(C(=O)/C=C/CN3CCCCC3)[C@H]21.Cl	Neutrophil elastase (Homo sapiens) (UniProt P08246)	inhibition	97
CC(C)[C@@H]1C(=O)N(S(C)(=O)=O)[C@@H]2CCN(C(=O)C3CN(CC(C)(C)C)C3)[C@H]21.Cl	Neutrophil elastase (Homo sapiens) (UniProt P08246)	inhibition	92

====

Test system: Rattus norvegicus
Test: pharmacokinetic parameter area under the curve (AUC) was reported in rat after intravenous administration
Format: ADME, organism-based
Settings: in vivo

smiles.data	assay.system	AUC [ng·h/mL]
CC(C)[C@@H]1C(=O)N(S(C)(=O)=O)[C@@H]2CCN(C(=O)C3CN(CC(C)(C)C)C3)[C@H]21.Cl	Rattus norvegicus	482
CC(C)[C@@H]1C(=O)N(S(C)(=O)=O)[C@@H]2CCN(C(=O)c3coc(CN4CCCC4)n3)[C@H]21.Cl	Rattus norvegicus	392
CC(C)[C@@H]1C(=O)N(S(C)(=O)=O)[C@@H]2CCN(C(=O)/C=C/CN3CCCCC3)[C@H]21.Cl	Rattus norvegicus	424
CC(C)[C@@H]1C(=O)N(S(C)(=O)=O)[C@@H]2CCN(C(=O)c3cnc(CNC4CC4)cn3)[C@H]21.Cl	Rattus norvegicus	148

====

Experiment: Pharmacokinetic parameter Cmax was reported after in rat oral administration
Assay type: ADME, organism-based
Design: route oral
Conditions: in vivo

smiles.data	Cmax [ng/mL]
CC(C)[C@@H]1C(=O)N(S(C)(=O)=O)[C@@H]2CCN(C(=O)C3CN(CC(C)(C)C)C3)[C@H]21.Cl	142
CC(C)[C@@H]1C(=O)N(S(C)(=O)=O)[C@@H]2CCN(C(=O)/C=C/CN3CCCCC3)[C@H]21.Cl	232
CC(C)[C@@H]1C(=O)N(S(C)(=O)=O)[C@@H]2CCN(C(=O)c3coc(CN4CCCC4)n3)[C@H]21.Cl	147
CC(C)[C@@H]1C(=O)N(S(C)(=O)=O)[C@@H]2CCN(C(=O)c3cnc(CNC4CC4)cn3)[C@H]21.Cl	135

Source of measurements: ChEMBL document CHEMBL1135761
